MEASUREMENT TARGET: human GLP-1 receptor (human, UniProt P43220 24-463)
TEST PROTOCOL: cell-based or functional assay
Starred links: 1 amine or outer side, 2 acyl side, 3 side chain; linkers in the order of their positions; H or OH if unused. Non-standard residues stand in square brackets, D forms with d. Groups on a side chain read outwards from the residue. *: point of attachment. Decanoyl(10-(4-HOOC-PhO)) = O=C(O)c1ccc(OCCCCCCCCCC(=O)*)cc1; C20 diacid = O=C(O)CCCCCCCCCCCCCCCCCCC(=O)*; C18 diacid = O=C(O)CCCCCCCCCCCCCCCCC(=O)*; C16 diacid = O=C(O)CCCCCCCCCCCCCCC(=O)*; γGlu = O=C(O)[C@H](CCC(=O)[*:2])N[*:1]; AEEA = NCCOCCOCC(=O)O; Aib = CC(C)(N)C(=O)O
I'd appreciate it if you could supply Human GLP-1R potency [EC50 (pM)] values for the items below.
Supply the numeric figure in pM, leaving out any unit text.

Task: // Human GLP-1R potency [EC50 (pM)] lookup, key: Compound 0090 (peptide) peptide: HGEGTFTSDVSSYLEEQAARK([AEEA-AEEA-γGlu-C18 diacid])FIEWLVRGK([AEEA-AEEA-γGlu-C18 diacid])GEGGEASELSTAALGRLSAELHELATLPRTETGSGSP-NH2
Result: 32.6

Task: Name the recorded Human GLP-1R potency [EC50 (pM)] for Compound 0516 (not fully specified (residue 21)) peptide: H[Aib]EGTFTSDVSK([AEEA-AEEA-γGlu-C16 diacid])YLEEQAARKFIAWLVRGRGGGGGEASELSTAALGRLSAELHELATLPRTETGSGSP-NH2 .
Result: 3.3

Task: Entry Compound 0099 (peptide) peptide: HWEGTFTSDVSSYLEEQAARK([AEEA-AEEA-γGlu-Decanoyl(10-(4-HOOC-PhO))])FIEWLVRGK([AEEA-AEEA-γGlu-Decanoyl(10-(4-HOOC-PhO))])GEGEASELSTAALGRLSAELHELATLPRTETGSGSP-NH2 has what Human GLP-1R potency [EC50 (pM)]?
Result: 9.6

Task: Which Human GLP-1R potency [EC50 (pM)] value belongs to Compound 0562 (peptide) peptide: H[Aib]EGTFTSDVSSYLEEQAARK([AEEA-AEEA-γGlu-C20 diacid])FIAWLVRGRGGGGGEASELSTAALGRLSAELHELATLPRTETGSGSP-NH2 ?
Result: 19.3
